# assayInfo: Bi-directional permeability, CACO-2
# Assay type: in vitro ADME
# settings: human, Caco-2, pH 7
quantityMeasured: efflux ratio at 2 h, 10 μM

{"columns": ["compound", "measuredResult"],
 "data": [
  ["Cc1cc(C)cc(C(=O)N(NC(=O)c2ccc3c(c2C)OCCO3)C(C)(C)C)c1", 0.8],
  ["COc1cccc(C(=O)NN(C(=O)c2cc(C)cc(C)c2)C(C)(C)C)c1C", 1],
  ["COc1ccc(C(=O)N(NC(=O)c2ccc3c(c2C)OCCO3)C(C)(C)C)c(OC)n1", 0.9],
  ["CCC(N(NC(=O)c1cccc(C)c1C)C(=O)c1cc(C)cc(C)c1)C(C)(C)C (centres unmarked)", 1.3],
  ["CCc1ccc(C(=O)NN(C(=O)c2cc(C)cc(C)c2)C(C)(C)C)c(F)c1", 1]
]}

----------
# assayInfo: Bi-directional permeability, CACO-2
# Assay type: in vitro ADME
# settings: human, Caco-2, pH 7, Percent Recovery A-to-B
# Procedure: Caco-2 monolayers were grown to confluence on collagen-coated, microporous, polycarbonate membranes in 12-well Costar Transwell plates. Details of the plates and their certification are shown below. […] Lucifer yellow flux was also measured for each monolayer after being subjected to the test compounds to ensure no damage was inflicted to the cell monolayers during the flux period. […]
Response field label takes criterion met when recovery at 2 h, 10 μM is strictly below 80% and criterion not met in all other cases.

{"columns": ["molecule", "groupLabel"],
 "data": [
  ["COc1ccc(C(=O)N(NC(=O)c2ccc3c(c2C)OCCO3)C(C)(C)C)c(OC)n1", "criterion not met"],
  ["CCc1ccc(C(=O)NN(C(=O)c2cc(C)cc(C)c2)C(C)(C)C)c(F)c1", "criterion not met"],
  ["COc1cccc(C(=O)NN(C(=O)c2cc(C)cc(C)c2)C(C)(C)C)c1C", "criterion not met"],
  ["CCc1ccc(C(=O)NN(C(=O)c2cc(C)cc(C)c2)C(C)(C)C)cc1", "criterion not met"],
  ["CCC(N(NC(=O)c1cccc(C)c1C)C(=O)c1cc(C)cc(C)c1)C(C)(C)C (centres unmarked)", "criterion met"]
]}

----------
# targetSystem: GAL4 DBD (1-147)-CfEcR(DEF)/VP16AD-βRXREF-LmUSPEF (Choristoneura fumiferana)
# assayInfo: cell-based
# settings: 33 uM ligand; RLU ligand treated / RLU DMSO treated cells; average of two wells
Hi, to clarify the labels: yes covers Fold Induction, 27-63 Assay, 33 uM from 1000 upward, no covers anything below 1000.

{"columns": ["compound", "groupLabel"],
 "data": [
  ["CCc1c(OC)cccc1C(=O)NN(C(=O)c1cc(C)cc(COC(C)=O)c1)C(C)(C)C", "yes"],
  ["C=Cc1c(OC)cccc1C(=O)NN(C(=O)c1cc(C)cc(C)c1)C(C)(C)C", "yes"],
  ["COc1cccc(C(=O)NN(C(=O)c2ccnnc2)C(C)(C)C)c1C", "no"],
  ["COc1cccc(C(=O)NN(C(=O)c2cc(Cl)cc(Br)c2)C(C)(C)C)c1C", "yes"],
  ["COc1ccc(C)cc1C(=O)N(NC(=O)c1cccc(OC)c1C)C(C)(C)C", "yes"],
  ["COc1cc(C(=O)N(NC(=O)c2ccc3c(c2C)CCCO3)C(C)(C)C)cc(OC)c1C", "yes"],
  ["CCc1c(OC)cccc1C(=O)NN(C(=O)c1ccc2c(c1)OCO2)C(C)(C)C", "yes"],
  ["Cc1c(C(=O)NN(C(=O)c2ccc(F)cc2)C(C)(C)C)ccc2c1CCCO2", "no"],
  ["CCc1c(OC)cccc1C(=O)NN(C(=O)c1cc(Cl)ccc1[N+](=O)[O-])C(C)(C)C", "yes"],
  ["CCc1c(OC)cccc1C(=O)NN(C(=O)c1cc(OC)cc(OC)c1)C(C)(C)C", "yes"],
  ["CCc1ccc(C(=O)NN(C(=O)c2cc(OC)c(C)c(OC)c2)C(c2ccccc2)C(C)(C)C)cc1 (racemic)", "no"],
  ["CCc1c(OC)cccc1C(=O)NN(C(=O)c1cc(F)c(Cl)cc1Cl)C(C)(C)C", "no"],
  ["CCc1c(OC)cccc1C(=O)NN(C(=O)c1cc(C)cc(C)c1)C(C)(C)CO", "yes"],
  ["COc1cccc(C(=O)N(NC(=O)c2ccc3c(c2C)OCCO3)C(C)(C)C)c1", "yes"],
  ["CCc1ccc(C(=O)NN(C(=O)c2cc(C)cc(C)c2)C(C)C(C)(C)C)cc1 (centres unmarked)", "yes"]
]}
